# study_target: Spindlin1 W72A/C11orf84 complex (human, UniProt Q9Y657 50-262; Q9BUA3 1-381, W72A)
# Sequence (Q9Y657 50-262 W72A, chain 1 of 2): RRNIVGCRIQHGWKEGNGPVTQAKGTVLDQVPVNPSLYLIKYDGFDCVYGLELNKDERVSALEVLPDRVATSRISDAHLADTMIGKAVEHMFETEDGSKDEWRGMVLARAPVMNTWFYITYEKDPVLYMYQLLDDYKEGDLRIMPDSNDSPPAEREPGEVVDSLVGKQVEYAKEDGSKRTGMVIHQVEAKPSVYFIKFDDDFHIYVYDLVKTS
# Sequence (Q9BUA3 whole entry, chain 2 of 2): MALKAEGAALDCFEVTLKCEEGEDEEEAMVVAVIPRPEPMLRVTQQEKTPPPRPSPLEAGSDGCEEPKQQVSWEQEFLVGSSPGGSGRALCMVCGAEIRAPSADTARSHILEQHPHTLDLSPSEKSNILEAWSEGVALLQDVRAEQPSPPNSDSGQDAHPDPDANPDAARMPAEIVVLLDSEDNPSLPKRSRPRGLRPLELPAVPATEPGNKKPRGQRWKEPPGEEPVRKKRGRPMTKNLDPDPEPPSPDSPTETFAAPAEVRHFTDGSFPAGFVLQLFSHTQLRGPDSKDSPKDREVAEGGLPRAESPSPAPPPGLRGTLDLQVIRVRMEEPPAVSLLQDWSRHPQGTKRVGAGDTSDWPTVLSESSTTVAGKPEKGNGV
# run_description: ITC
Ends that are not written are not given here. Me3 = trimethyl group on lysine (trimethyl-lysine)
measured_metric: Kd (nM)
Respond numerically; units are nM and should not be typed.

Requested field: Kd. Item: ARTK(Me3)QTARK(Me3)STG [H3K4me3K9me3 peptide] 77
